Assay: reducers of endogenous Her2 protein level, primary screen, SKBR3 breast tumor cells, AlphaScreen, ATP viability (AID 461);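 also: percent of carrier control wells set as 100% viability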
Conditions: 18-24 h, measured here: SKBR3 viability, ATP luminescence, at 10 µM
For each record, check the reported viability: if it is below 90% write condition met, else write condition not met.

# example entries with known answers
COc1ccc(C2CC(=O)C3=C(C2)Nc2ccccc2N(C(=O)C2CC2)C3c2cccnc2)cc1OC (stereo unspecified): condition not met
Clc1ccc(Cn2ncc3c(NCc4cccnc4)ncnc32)cc1: condition met
O=C(CCN1CCOCC1)Nc1cccc(Br)c1: condition not met
C(=C\c1ccccc1)/CN1CCN(Cc2ccc3c(c2)OCCO3)CC1: condition met
Cc1nc2sc(C(c3cccc(F)c3)N3CCOCC3)c(O)n2n1 (stereo unspecified): condition not met

**Query** For this molecule, is viability lower than 90%? O=C(CN1CCN(c2ncccn2)CC1)Nc1ccccc1-n1cccc1
**Result** condition not met

**Query** For this molecule, is viability lower than 90%? CCOc1ccc2nc(S(N)(=O)=O)sc2c1
**Result** condition not met

**Query** For this molecule, is viability lower than 90%? CCOCCCNS(=O)(=O)c1ccc2c(c1)oc(=O)n2CC(=O)OCC
**Result** condition not met

---

Measured viability by item
Test: SK-BR-3 cell growth inhibitors, pilot screen, 24 h, human (AID 572);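 also: compound exposure lasted between 18 and 24 h rather than exactly 24 h; 100% = carrier-treated control wells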
Details: SK-BR-3 viability, CellTiter-Glo luminescence, at 10 µM, stronger effect = lower value
Calls of active or inactive are those of the source.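 How the source made its calls: active means viability at or below 10% of carrier control in both of two separate runs; inconclusive means viability at or below 10% in only one of the two runs; inactive means the rest.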

A selection of reference data follows.
CCCn1c(O)c(CN2CCCC(C)C2)c(C)c(C#N)c1=O (stereo not drawn): 102% (inactive)
CC1CCN(C(=O)CSc2nnc(-c3ccc(S(=O)(=O)N4CCOCC4)cc3)n2C)CC1: 108% (inactive)
CCc1ccc(CN(C)CCc2ccccn2)cc1: 108% (inactive)
O=C(NCc1ccccn1)C(C(=O)c1ccc(F)cc1)n1ccccc1=O (stereo not drawn): 86.5% (inactive)
CCC1(NC(C)=O)CC2CC1CC2NC(C)=O (stereo not drawn): 94.5% (inactive)

**Query** State the recorded viability for this entry: O=C(Nc1cccnc1)c1ccc2c(c1)OCO2
**Result** 119% (inactive)

**Query** State the recorded viability for this entry: CN(C)c1cccc2c(S(=O)(=O)Nc3ccccn3)cccc12
**Result** 96.5% (inactive)

**Query** State the recorded viability for this entry: CC(C)(C)C(=O)Cn1c[n+](N)cn1
**Result** 103% (inactive)

**Query** State the recorded viability for this entry: O=C(N1CCOCC1)N1CCC(NC(=O)C23CC4CC(CC(C4)C2)C3)CC1
**Result** 90% (inactive)

**Query** State the recorded viability for this entry: Cc1cc(C)n(-c2nc3c(c(=O)n(Cc4ccc(Cl)c(Cl)c4)c(=O)n3C)n2C)n1
**Result** 103% (inactive)

---

Experiment: Restrictive medium S. cerevisiae growth inhibition, OD615, pilot screen of yeast lifespan reduction project, restrictive growth control (AID 706);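 also: modified DeaD lifespan yeast strain shifted to restrictive glucose medium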
Settings: OD615, 48 h, at 10 µM, stronger effect = higher value
Measured growth inhibition by item
Respond numerically; units are % and should not be typed.

A selection of reference data follows.
Cc1ccc(C(=O)NCc2ccco2)cc1S(=O)(=O)N1CCCCC1: -5.65
O=C(O)CCn1c(=O)[nH]c2ccccc2c1=O: -15.1
CC(C)C(NS(=O)(=O)c1ccc2c3c(cccc13)C(=O)N2)C(=O)O (stereo unspecified): -4.4
COc1ccc(S(=O)(=O)NCCN2CCOCC2)c2ccccc12: -2.08
CC1CCCCC1NC(=O)c1ccc(CNc2c(N3CCCC3)c(=O)c2=O)cc1 (stereo unspecified): 8.32

**Query** State the recorded growth inhibition for this entry: COc1cccc(C2c3c(oc4ccccc4c3=O)C(=O)N2c2ccccn2)c1 (stereo unspecified)
**Result** -15.9

**Query** State the recorded growth inhibition for this entry: Cc1cc(C)c(C)c(S(=O)(=O)Nc2ccccc2C(=O)NCCCn2ccnc2)c1C
**Result** 12.5

**Query** State the recorded growth inhibition for this entry: c1ccc(Cc2nnc3sc(-c4ccc5c(c4)OCCO5)nn23)cc1
**Result** 55.8

Each recorded value in this set is attributed to PubChem BioAssay.
